TGT: human TLR9 (Homo sapiens)
Construct: host or cells: HEK-Blue cells
Sequence (Q9NR96 26-1032): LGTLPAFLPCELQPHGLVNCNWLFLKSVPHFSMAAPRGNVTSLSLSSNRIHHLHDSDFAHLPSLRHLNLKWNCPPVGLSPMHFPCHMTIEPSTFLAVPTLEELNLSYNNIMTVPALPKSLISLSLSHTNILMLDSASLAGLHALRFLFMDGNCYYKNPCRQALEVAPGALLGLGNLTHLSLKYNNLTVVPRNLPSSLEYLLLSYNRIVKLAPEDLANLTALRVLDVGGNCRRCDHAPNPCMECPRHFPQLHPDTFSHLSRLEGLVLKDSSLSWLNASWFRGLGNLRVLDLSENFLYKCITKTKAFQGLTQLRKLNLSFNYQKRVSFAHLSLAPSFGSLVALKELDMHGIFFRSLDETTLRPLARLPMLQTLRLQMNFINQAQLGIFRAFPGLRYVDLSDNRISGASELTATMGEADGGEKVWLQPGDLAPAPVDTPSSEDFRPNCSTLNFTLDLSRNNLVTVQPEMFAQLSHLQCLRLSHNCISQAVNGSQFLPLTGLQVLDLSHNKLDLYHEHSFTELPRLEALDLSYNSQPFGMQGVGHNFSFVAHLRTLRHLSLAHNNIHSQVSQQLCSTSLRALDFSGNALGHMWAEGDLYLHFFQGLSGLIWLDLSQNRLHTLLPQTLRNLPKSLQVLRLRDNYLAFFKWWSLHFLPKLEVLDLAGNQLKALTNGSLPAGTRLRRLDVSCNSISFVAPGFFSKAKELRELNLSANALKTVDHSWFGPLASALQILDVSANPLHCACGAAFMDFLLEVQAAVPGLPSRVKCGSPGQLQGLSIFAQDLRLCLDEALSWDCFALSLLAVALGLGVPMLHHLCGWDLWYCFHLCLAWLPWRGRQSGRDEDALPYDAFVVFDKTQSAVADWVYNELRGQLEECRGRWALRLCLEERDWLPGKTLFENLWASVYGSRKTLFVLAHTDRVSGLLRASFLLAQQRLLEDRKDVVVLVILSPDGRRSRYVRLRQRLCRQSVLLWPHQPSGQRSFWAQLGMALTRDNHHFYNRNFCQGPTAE
MEASUREMENT_DESCRIPTION: TLR9 inhibition reporter assay (HEK-Blue SEAP reporter, ODN2006 stimulation)
Format: cell-based
DETAILS: HEK-Blue cells overexpressing human TLR9, SEAP reporter, ODN2006 5 nM, 22 hour incubation
ASSAY_METRIC: IC50 (µM)

- COc1c(C)c(-c2[nH]c3ccc(C4CCNCC4)cc3c2C(C)C)cn(C)c1=O: 0.783
- CC(C)c1c(-c2ccc(=O)n(C(C)C)c2)[nH]c2ccc(C3CCNCC3)cc12: 0.914
- Cc1nc(-c2[nH]c3ccc(C4CCN(C)CC4)cc3c2C(C)C)cn(C)c1=O: 9.65
- Cc1cc(-c2[nH]c3ccc(C4CCN(Cc5ccn(C)n5)CC4)cc3c2C(C)C)cn(C)c1=O: 5.19
- Cc1cc(-c2[nH]c3ccc(C4CCN(CC5(O)CCOCC5)CC4)cc3c2C(C)C)c(C)n(C)c1=O: 2.31
- Cc1cc(-c2[nH]c3ccc(C4CCN(CCCC(F)(F)F)CC4)cc3c2C(C)C)cn(Cc2ccccc2)c1=O: 3.06
- Cc1c(-c2[nH]c3ccc(C4CCNCC4)cc3c2C(C)C)ccc(=O)n1C: 0.58
- CC(C)c1c(-c2ccc(=O)n(C)c2)[nH]c2ccc(C3CCN(CC(=O)N(C)C)CC3)cc12: 10.4
- Cc1cc(-c2[nH]c3ccc(C4CCN(C5CCC(C(C)(C)O)CC5)CC4)cc3c2C(C)C)cn(C)c1=O (stereo not shown) [Example 267]: 3.54
- Cc1cc(-c2[nH]c3ccc(C4CCN(C(=O)CN(C)C)CC4)cc3c2C(C)C)cn(Cc2ccccc2)c1=O: 1.66
- CC(C)c1cc(-c2[nH]c3ccc(C4CCNCC4)cc3c2C(C)C)cn(C)c1=O: 0.764
- CNC(=O)CN1CCC(c2ccc3[nH]c(-c4cc(OC)c(=O)n(C)c4C)c(C(C)C)c3c2)CC1: 7.65
- CCCNC(=O)c1cc(-c2[nH]c3ccc(C4CCNCC4)cc3c2C(C)C)cn(C)c1=O: 7.38
- CNC(=O)CN1CCC(c2ccc3[nH]c(-c4cc(C)c(=O)n(CC(C)C)c4)c(C(C)C)c3c2)CC1: 8.73
- Cc1c(-c2[nH]c3ccc(C4CCNCC4)cc3c2C(C)C)cn(C)c(=O)c1Cl: 1.12
- CCCN1CCC(c2ccc3[nH]c(-c4cc(-c5ccc(F)nc5)c(=O)n(C)c4)c(C(C)C)c3c2)CC1: 0.714

Reference source for all entries: patent US11447466B2
